Target: recombinant human FLAP protein (Homo sapiens)
Construct: made in house; host or cells: Sf9 insect cells (membrane fraction, 100,000 x g pellet)
Sequence (P20292 1-161): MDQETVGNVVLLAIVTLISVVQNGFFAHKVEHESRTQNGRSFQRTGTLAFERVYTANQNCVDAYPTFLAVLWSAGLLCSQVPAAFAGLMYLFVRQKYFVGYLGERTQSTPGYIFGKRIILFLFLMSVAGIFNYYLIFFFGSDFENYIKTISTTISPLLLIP
Assay: FLAP binding assay (Scintillation Proximity Assay, displacement of [125I]L-691,831)
Conditions: read-out: Human FLAP SPA Binding (IC50 nM)
Experimental: Compounds are assessed for the ability to bind to FLAP in a binding assay that measures compound-specific displacement of an iodinated (^125I) FLAP inhibitor via a Scintillation Proximity Assay format (adapted from S. Charleson et al., Mol. Pharmacol., 1992, 41, 873-879). Cell pellets produced from sf9 insect cells expressing recombinant human FLAP protein are resuspended in buffer A [15 mM Tris-HCl (pH 7.5), 2 mM MgCl2, 0.3 mM EDTA, 1 mM PMSF]. […]
MEASURED_PARAMETER: IC50 (nM)

molecule=CN(C)C(=O)Cn1cc(-c2coc([C@](C)(c3ccc(-c4cnc(N)nc4)cc3)C3CC3)n2)cn1 test_result=380
molecule="CC(C)C(C)(c1ccc(-c2cnc(N)nc2)nc1)c1nc(-c2cnn(C)c2)co1 (stereo not shown)" test_result=87
molecule=Nc1ncc(-c2ccc(C3(c4c[nH]c5ccccc45)CCCC3)cc2)cn1 test_result=1.7

[I] CN(C)C(=O)Cn1cc(-c2cc(C(C)(c3ccc(-c4cnc(N)nc4)cc3)C3CC3)no2)cn1 (stereo not shown)
[II] Nc1ncc(-c2ccc(C3(c4nc5ncccc5[nH]4)CCC3)cc2)cn1
[III] Nc1ncc(-c2ccc(C3(c4cn(CCO)c5ccccc45)CCC3)cc2)cn1
[IV] COCC(C)(c1ccc(-c2cnc(N)nc2)cc1)c1cn(CC(=O)O)c2ncccc12 (stereo not shown)
[V] COC(=O)c1cc(-c2cnn(C)c2)c(C2(c3ccc(-c4cnc(N)nc4)cc3)CCC2)n1C
Output the entries ranked by IC50 from maximum down to minimum. Give your ranking as a list of the labels in the requested order.
IV, II, V, I, III
(IV: 1100 nM, II: 250 nM, V: 38 nM, I: 9 nM, III: 1.5 nM)

[P] CC(C)C(C)(c1ccc(-c2cnc(N)nc2)cc1)c1cn(Cc2ccccn2)c2cc(F)ccc12 (stereo not shown)
[Q] Cn1cc(-c2coc(C(C)(c3ccc(-c4cnc(N)nc4)nc3)C3CC3)n2)cn1 (stereo not shown)
Hi, I'm comparing P with Q and wondering which one has the bigger number for IC50. Any idea? // output: label of the selected item
Q

====

Target: recombinant human FLAP protein (Homo sapiens)
Construct: made in house; host or cells: Sf9 insect cells (membrane fraction, 100,000 x g pellet)
Sequence (P20292 1-161): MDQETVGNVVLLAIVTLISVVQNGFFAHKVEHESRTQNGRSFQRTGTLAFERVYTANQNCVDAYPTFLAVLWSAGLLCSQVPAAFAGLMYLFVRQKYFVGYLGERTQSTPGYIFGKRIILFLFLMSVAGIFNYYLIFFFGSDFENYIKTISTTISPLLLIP
Assay: FLAP binding assay (Scintillation Proximity Assay, displacement of [125I]L-691,831)
Details: read-out: Human FLAP SPA Binding (IC50 nM)
MEASURED_PARAMETER: IC50 (nM)

A selection of reference data follows.
compound="CCC(C)(c1ccc(-c2cnc(N)nc2)cc1)c1c[nH]c2ccccc12 (centres unmarked) [Example 91]" reading_unit=nM test_result=2.7
compound="Cc1cc(CN(C)C(=O)c2cccc3c(C4(c5ccc(-c6cnc(N)nc6)cc5)CCC4)c[nH]c23)[nH]n1 [Example 13]" reading_unit=nM test_result=1.4
compound="Cc1ccc(-c2cc(C3(c4ccc(-c5cnc(N)nc5)cc4)CCC3)nn2C)cn1 [Example 20]" reading_unit=nM test_result=5.1
compound="Nc1ncc(-c2ccc(C3(c4c[nH]c5c(F)cccc45)CCC3)cc2)cn1 [Example 87]" reading_unit=nM test_result=1.6

[P] Cc1ccc(-c2cnc(C3(c4ccc(-c5cnc(N)nc5)cc4)CCC3)s2)cn1 [Example 15]
[Q] COC(=O)c1cc(-c2ccc(F)cc2)c(C2(c3ccc(-c4cnc(N)nc4)cc3)CCC2)[nH]1 [Example 166]
[R] CC(C)C(C)(c1ccc(-c2cnc(N)nc2)cc1)c1cn(CC(=O)O)c2ncccc12 (centres unmarked) [Example 47]
[S] CC(C)[C@@](C)(c1ccc(-c2cnc(N)nc2)nc1)c1cc(-c2cnn(C)c2)on1 [Example 192]
Sort the 4 compounds by IC50; largest first, smallest last. State the ranking by listing the labels in the requested order.
S, Q, R, P
(S: 210 nM, Q: 72 nM, R: 4.6 nM, P: 1.8 nM)
